Recorded IP for the following compounds
# Target: Muscarinic acetylcholine receptor M4 (Homo sapiens)
# Assay Text: Positive allosteric modulation of human muscarinic acetylcholine receptor M4 expressed in CHOK1 cells assessed as increase in acetylcholine-induced […] preincubated for 4 mins followed by acetylcholine addition measured for 3.5 mins by FLIPR assay
# Format: functional, cell-based
Give the figure together with its unit, number first.

Consider the worked cases shown below.
# Compound, Target, IP
records = [
    ("COc1ccc(O[C@@H]2CCN(c3nc4c(cc3C)C(=O)N(C)[C@H]4CO)C[C@H]2F)cn1", "Muscarinic acetylcholine receptor M4 (Homo sapiens)", "8.06 µM"),
    ("Cc1cc2c(nc1N1CCC(OC[C@@]3(C)C[C@H]3C#N)CC1)CNC2=O", "Muscarinic acetylcholine receptor M4 (Homo sapiens)", "30 µM"),
    ("COc1ccc(O[C@H]2CCN(c3nc4c(cc3C)C(=O)NC4)C[C@H]2C)cn1", "Muscarinic acetylcholine receptor M4 (Homo sapiens)", "30 µM"),
    ("CCN1C(=O)c2c(nc(N3CCC(Oc4ccc5c(c4)COC5)CC3)c(C)c2C)[C@@H]1CO", "Muscarinic acetylcholine receptor M4 (Homo sapiens)", "240 µM"),
    ("COCCOC1CCN(c2nc3c(cc2C)C(=O)NC3)CC1", "Muscarinic acetylcholine receptor M4 (Homo sapiens)", "11.2 µM"),
    ("Cc1cc2c(nc1N1CCC(OC3CCOC3)CC1)CNC2=O (centres undefined)", "Muscarinic acetylcholine receptor M4 (Homo sapiens)", "11.3 µM"),
    ("CCOc1ccc(OC2CCN(c3nc4c(cc3C)C(=O)N(C)[C@H]4CO)CC2)cn1", "Muscarinic acetylcholine receptor M4 (Homo sapiens)", "8.62 µM"),
    ("Cc1cc2c(nc1N1CCC(Oc3ccc4c(n3)COC4)CC1)[C@H](CO)N(C)C2=O", "Muscarinic acetylcholine receptor M4 (Homo sapiens)", "30 µM"),
]

Query: Would you mind telling me what IP value was observed for Cc1cc2c(nc1N1CCC(Oc3cnc4[nH]nc(C)c4c3)CC1)CNC2=O ?
Reply: 6.07 µM
